Tested on: MS2 coat protein
Assay: apparent KD of MS2 coat protein, switch OFF state (with FMN for OFF switches, without FMN for ON switches); designed switch direction (-1 OFF switch, 1 ON switch): -1; higher = weaker reporter binding
Conditions: FMN input: 0 or 200 uM; Eterna round: R93 (includes R88 designs)

input sequence | study system | apparent KD of MS2 coat protein
UUAAUAGUAGGAUAUACAUGAGGAUCACCCAUGUAGCAACUACACAAAGGAACCUGAUGUAGAAGGACUUCCAG [Attionuson] | MS2 coat protein | 13.6 nM
AAAAAGCGAGGAUAUACAUGAGGAUCACCCAUGUCAAACGGUAAGACCGCAGGAAACAGUAGAAGGCGCAAAAA [Exclusion3-03] | MS2 coat protein | 91.1 nM
AACAGUACAGGAUAUACAUGAGGAUCACCCAUGUGGGAAAAAAGAUCGAGAGAUCCAUGUAGAAGGGUACUGGA [JL In the Red 06] | MS2 coat protein | 25.6 nM
AAAAAACAUGAGGAUCACCCAUGUGAGGAUAUGCAAAACCCAUAUAAAAAGGGAAAAAGUAGAAGGCACAAAAA [wbt round 1 mod 10] | MS2 coat protein | 28.6 nM
AAGAACUGAGGAUAUACAUGAGGAUCACCCAUGUAAAAGAAAGAAAGGGAAAAGAAAAGUAGAAGGCAGAAGAA [Menmaatre-setpenptah Ramesses XI] | MS2 coat protein | 59.4 nM
AAAUGCUGAGGAUAUACAUGAGGAUCACCCAUGUAAAAUAAAUAAUGGAUGUAAACGUGUAGAAGGCAGCAUAA [Exclusion 3.14b (FMN+ favored )] | MS2 coat protein | 23 nM
CUCUAGUCAGGAUAUCCAAGAAAAGAAGAGAAAGAAAAGAAGGAGAAGGGACAUGAGGAUCACCCAUGUAAGAA [EteRNA is fun!] | MS2 coat protein | 46.4 nM
GAAAAGUCAGGAUAUGUGGAAAAAAUAAAAAAAAUAAAAACACAGAAGGGACAUGAGGAUCACCCAUGUAAAAG [Mat - Exclusion 4 - Mayanna - D141] | MS2 coat protein | 62.2 nM
AGCUAGUCAGGAUAUACGAACAUGUCAAAAGACGUGAAGAAACAUGAGGAUCACCCAUGUAGAAGGGACUAGCA [Mat - Exclusion 2 - JL-Eli mod - D50] | MS2 coat protein | 12.4 nM
AGCUAGCAAGGAUAUGCGAACAUGUCAAAAGACGUGAAGGGACAUGAGGAUCACCCAUGUAGAAGGUGCUAGCA [JL 74% mod 9] | MS2 coat protein | 27.6 nM
AACAAACAUGAGGAUCACCCAUGUAAGGAUAUGCGACAAAAACAAAAAACAAAAAAAAGCAGAAGGUACAACAA [Amethyst 100] | MS2 coat protein | 30.4 nM
AAAAAACAUGAGGAUCACCCAUGUGAGGAUAUGCAAAACCCAUAUAAAAAGGGAAAAAGCAGAAGGCGCAAAAA [Starry Exclusion 1.4 (wbt round 1 mod)] | MS2 coat protein | 24.2 nM
AAAAAACAUGAGGAUCACCCAUGUGAGGAUAUCGAGAAGAAGAAGAAGAAGAAGAGAACGAGAAGGCACAAAAA [Exclusion 1 - G's] | MS2 coat protein | 29.9 nM
AAAAAACAUGAGGAUCACCCAUGUGAGGAUAUGCAAAACUUAUAUAAAAAGGGAAAAAGUAGAAGGCACAAAAA [LROPPY Exclusion 1 - v09_water mod] | MS2 coat protein | 39.2 nM
AAAGUGUGAGGAUAUGUCAAAGGUCACGAAAGUGACAAAGGACAGAAGGUACAUGAGGAUCACCCAUGUAAAAA [65% + different segment] | MS2 coat protein | 32 nM
AGCUAGUCAGGAUAUACGAACAUGUCAGAAGACGUAAGGGAACAUGAGGAUCACCCAUGUAGAAGGGACUAGCA [Diamond 48] | MS2 coat protein | 75 nM
AAAAAACAUGAGGAUCACCCAUGUGAGGAUAUGCGAAAAAAAAAAUAAAAAAAAAAAAGUAGAAGGCACACCAA [Mat - Exclusion 1 - Eli mod - D55] | MS2 coat protein | 44.1 nM
AGCUCGGUAGGAUAUACAAAAUGAUUGCGAAAGCAAUCAACACAUGAGGAUCACCCAUGUAGAAGGACCGAGCA [Mat - Exclusion 2 - JL-Eli mod - D42] | MS2 coat protein | 20 nM
GAAAAGAGAGGAUAUACUUUGGGAAAAGAAAAGAUGAUGUUACAUGAGGAUCACCCAUGUAGAAGGCUCAAAAA [Mat - Exclusion 2 - Mod - D156] | MS2 coat protein | 44.6 nM
AGUCAGAGAGGAUAUACAUGGAAAAAAAAAGUAAGAUCCCUACAUGAGGAUCACCCAUGUAGAAGGCUCUGACA [Ex2 Design 138: Sub-opt 2] | MS2 coat protein | 13.2 nM
AGCUAGUCAGGAUAUACGAACAGGUCAAAAGACCUGAAGGGACAUGAGGAUCACCCAUGUAGAAGGGACUAGCA [Mat - Exclusion 2 - JL mod - D28] | MS2 coat protein | 131 nM
AAAAAUGGAGGAUAUACAUGAGGAUCACCCAUGUGUGACUAUACUAAGCGCUCCUCAGGUAGAAGGCCAAAAAA [Gilly Gone Silly 16 - Jieux - Exclusion 3] | MS2 coat protein | 99.5 nM
AGGAAACAUGAGGAUCACCCAUGUCAGGAUAUUGAAAAGAAAAGAAAAGAAAGAAGAACAAGAAGGGACAAGAA [Mekh] | MS2 coat protein | 20.6 nM
AAGAAGGAAGGAUAUACAUGAAAGAAAGAAAAGAAAAGAAAACAUGAGGAUCACCCAUGUAGAAGGUCCUAGAA [EteRNA is fun!] | MS2 coat protein | 80.5 nM
